# study system: T1, recombinant YFV E protein (soluble E, sE; YFV Asibi strain) (Yellow fever virus, Asibi strain, UniProt Q6DV88 286-678)
# T1 construct: also called YFV E antigen; YFV E monomer
# T1 sequence (Q6DV88 286-678): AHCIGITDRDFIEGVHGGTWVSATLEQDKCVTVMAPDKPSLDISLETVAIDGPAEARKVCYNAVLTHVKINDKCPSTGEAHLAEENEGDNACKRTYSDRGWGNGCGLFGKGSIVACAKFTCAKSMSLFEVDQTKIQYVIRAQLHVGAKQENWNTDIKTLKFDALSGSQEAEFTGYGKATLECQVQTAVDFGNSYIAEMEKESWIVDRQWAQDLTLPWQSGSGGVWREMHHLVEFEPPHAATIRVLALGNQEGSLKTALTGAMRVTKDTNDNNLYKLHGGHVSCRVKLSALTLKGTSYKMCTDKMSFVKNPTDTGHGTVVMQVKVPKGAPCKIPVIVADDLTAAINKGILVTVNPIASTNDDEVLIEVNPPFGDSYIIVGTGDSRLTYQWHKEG
# test summary: BLI monovalent (IgG on tip)
pKd: −log10 of the molar value.
Think of 8 as a floor: if pKd stands on it or above, it is y; beneath it, n.

Please tell me: is the binder ADI-42226 (antibody, V domains shown, full-length IgG) VH: EVQLLESGGGLVQPGGSLRLSCAASGFIFSDHYMDWVRQAPGKGLEWVGRIRNKPNSYTTDYAAYVKGRFSISRDDSKNSLFLQMNSLKTEDTAVYYCARVVNGLDVWGQGTTVTVSS VL: SYELTQPPSVSVSPGQTARITCSGDALPKQYAYWYQQKPGQAPVLVIYKDTERPSGIPERFSGSSSGTTVTLTISGVQAEDEADYYCQSADSSVADSSVVFGGGTKLTVL at or over 8 in terms of pKd? y

Determine whether measured pKd meets or exceeds 8 for ADI-48900 (antibody, V domains shown, full-length IgG; also called Antibody Number 13) VH: EVQLQESGPGLVKPSGTLSLTCAVSGGSISSSDWWSWVRQPPGKGLEWIGEIYHSGSTSYNPSVKSRVSISVDKSKNQFSLQLSSVTAADTAIYYCARVNPPQYSSGWYSVYWGQGTLVTVSS VL: QSVVTQPPSVSAAPGQKVTISCSGSSSNIGNNYVSWYQQLSETAPKLLIYDNNKRPSGIPNRFSGSKSGTSATLGITGLQTGDEADYYCGTWDNSLGAVVFGGGTKVTVL n

Form field: pKd at least 8? Entry: ADI-42172 (antibody, V domains shown, full-length IgG; also called Antibody Number 117) VH: QVQLVESGGGVVQPGRSLRLSCAASGFTFSSYGMHWVRQAPGKGLEWVAVMSYDGSNKYYADSLKGRFTISRDNSKNTLYLQMNSLRAEDTAVYFCAKAYDSSAYYYLDYWGQGTLVTVSS VL: EIVLTQSPSTLSASVGDRVTITCRASQSISDWLAWYQQKPGKAPNLLIYRASSLESGVPSRFSGSGSGTEFTLTISSLQPDDFATYYCQQYNRYPYTFGQGTKVEIK n

Does pKd meet or surpass 8 for ADI-50205 (antibody, V domains shown, full-length IgG; also called Antibody Number 36) VH: QVQLQESGGGVVQPGRSLRLSCAASGFTFSNFGMHWVRQAPGKGLEWVAIISYDRSNKDYADSVKGRFTISRDNSKNTLYLQMNSLRAEDTAVYYCAKDQCGGDCTADYWGQGTLVTVSS VL: QSVLIQPASVSGSPGQSITISCTGTSSDVGGDKYVSWYQQHPGKAPKLVIYEVSNRPSGVSNRFSGSKSGNTASLTISGLQAEDEADYYCSSYTSSGTPVVCGGGTKVTVL ? n
